test system: HOP-62 NSCLC; experiment: NCI-60 one-dose screen, 48 h (100 = growth as untreated, 0 = no growth, -100 = all killed); details: 10 µM unless noted
Compounds without any hit were thinned out: in the full panel of roughly 83,000, 20% have a hit.
Note to self: growth under 70% means Met, ties and anything higher get Not met.

| compound | class |
| --- | --- |
| CN1C(=O)N(C)C2Nn3c(s/c(=C\c4ccc(Cl)cc4Cl)c3=O)=NC21 (stereo not given) | Not met |
| O=C1c2ccc3c4c(ccc(c24)C(=O)N1CCCCO)C(=O)N(CCCCO)C3=O | Not met |
| O=c1oc2ccc(F)cc2c(=O)n1-c1ccc(F)cc1F | Met |
| O=C(COc1cc(O)c2c(=O)cc(-c3ccccc3)oc2c1)Nc1ccccc1C(F)(F)F | Met |
| O=C(Nc1ccc(Br)cc1F)c1cc(F)ccc1O | Met |
| CCCCCCC(O)(c1ccc(F)cc1)C(CN1CCOCC1)c1ccccc1 (stereo not given) | Met |
| CCN1CCN(C(=S)SCC(=O)Nc2nc3ccc(C)cc3s2)CC1 | Not met |
| O=c1c2cc(F)ccc2sc2c(NCCCNCCO)nc3ccc(Cl)cc3c12 | Met |
| COc1ccc(C2NCCc3c2[nH]c2ccccc32)cc1CN1CCN(c2ccc(F)cc2)CC1 (stereo not given) | Met |
| Clc1ccc(COc2ccc(Nc3ncnc4onc(-c5ccccc5)c34)cc2)cc1 | Not met |
